The measurements presented in this section are drawn from ChEMBL document CHEMBL4190266.

# TEST_DESCRIPTION: Antagonist activity at GluN1A/GluN2A receptor (unknown origin) expressed in Xenopus laevis oocytes assessed as inhibition of glutamate/glycine-induced channel current at 1 uM at -70 mV holding potential by two electrode voltage clamp method relative to control
# Type: cell-based
# RUN_PARAMETERS: Homo sapiens
READOUT_NAME: inhibition (%)

Some compounds with known inhibition results, for comparison:
inhibition for CC(C(O)c1ccc(O)cc1)N1CCC(Cc2ccccc2)CC1 (centres undefined) ?
87

State the recorded inhibition for this entry: OC1CN(C2CCN(Cc3ccccc3)CC2)CCc2ccccc21 (centres undefined)
13

I = O=[N+]([O-])c1ccc2c(c1)C(O)CN(C1CCC(c3ccccc3)CC1)CC2 (mixture of isomers)
II = OC1CN(C2CCC(c3ccccc3)CC2)CCc2ccccc21 (mixture of isomers)
Please let me know which one, I or II , has a lower measured inhibition value. Respond using the label that marks the chosen record.
II

---

# TESTED_TARGET: Sigma non-opioid intracellular receptor 1 (Cavia porcellus)
# Sequence (Q60492 whole entry): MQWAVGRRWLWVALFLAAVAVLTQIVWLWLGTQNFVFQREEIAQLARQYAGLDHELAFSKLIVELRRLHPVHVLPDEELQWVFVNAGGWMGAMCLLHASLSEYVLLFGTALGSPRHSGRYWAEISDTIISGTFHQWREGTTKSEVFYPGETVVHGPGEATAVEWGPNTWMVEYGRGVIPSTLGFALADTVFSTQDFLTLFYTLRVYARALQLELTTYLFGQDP
pKi: −log10 of the molar value.
READOUT_NAME: pKi

a = OC1CN(Cc2ccc(-c3ccccc3)cc2)CCc2ccccc21 (configuration not stated)
b = O=[N+]([O-])c1ccc2c(c1)C(O)CN(Cc1ccc(-c3ccccc3)cc1F)CC2 (configuration not stated)
c = OC1CN(C2CCC(c3ccccc3)CC2)CCc2ccccc21 (mixture of isomers)
d = c1ccc(-c2ccc(CN3CCc4ccccc4CC3)cc2)cc1
Please arrange the 4 molecules above from largest to smallest pKi value. API: response body holds the labels in the requested order.
d, c, a, b

1 = O=[N+]([O-])c1ccc2c(c1)C(O)CN(CCCCCc1ccccc1)CC2 (configuration not stated)
2 = O=[N+]([O-])c1ccc2c(c1)C(O)CN(CCc1ccccc1)CC2 (configuration not stated)
Between item 1 and item 2 , which reported pKi is smaller? Reply briefly: the label of your chosen item.
2
(2: 5.74, 1: 7.00)

a = O=C(CCCN1CCc2ccccc2C(O)C1)c1ccc(F)cc1 (configuration not stated)
b = Nc1ccc2c(c1)C(O)CN(CCCCCc1ccccc1)CC2 (configuration not stated)
c = c1ccc(CCCCCN2CCc3ccccc3CC2)cc1
d = OC1CN(C2CCN(Cc3ccccc3)CC2)CCc2ccccc21 (configuration not stated)
Kindly order the items shown according to pKi, from the highest value down. Enter labels, ranked according to the request.
d, c, b, a

---

# TEST_DESCRIPTION: Selectivity ratio of Ki for sigma1 receptor in guinea pig brain cortex membranes to Ki for recombinant human GluN1A/GluN2B receptor expressed in mouse L(tk-) cell membranes
# Type: cell-based
Entries and their measured Ratio Ki follow.
Form rule: numeric answer, no unit written next to it.

Here's what some known entries look like.
Entry under review: c1ccc(CCCCCN2CCc3ccccc3CC2)cc1 . Reported Ratio Ki?
0.4

Look at this compound and give its reported Ratio Ki. O=[N+]([O-])c1ccc2c(c1)C(O)CN(CCCCc1ccccc1)CC2 (centres undefined)
2

Query (compound): c1ccc(CCCCN2CCc3ccccc3CC2)cc1 ; field requested: Ratio Ki
0.04

Ratio Ki for Nc1ccc2c(c1)C(O)CN(CCCCCc1ccccc1)CC2 (centres undefined) ?
2

Please give the measured Ratio Ki for this compound: OC1CN(CCCCCc2ccccc2)CCc2ccccc21 (centres undefined)
7

We next turn to a different compound, shown below.
Look up Ratio Ki for this compound: O=[N+]([O-])c1ccc2c(c1)C(O)CN(CCc1ccccc1)CC2 (centres undefined)
1
